Numbers sourced from patent US9296691B2.

# tested_system: TrkA-Fc (Homo sapiens)
# Construct: purchased R&D
# Sequence (P04629 33-423 limits assumed): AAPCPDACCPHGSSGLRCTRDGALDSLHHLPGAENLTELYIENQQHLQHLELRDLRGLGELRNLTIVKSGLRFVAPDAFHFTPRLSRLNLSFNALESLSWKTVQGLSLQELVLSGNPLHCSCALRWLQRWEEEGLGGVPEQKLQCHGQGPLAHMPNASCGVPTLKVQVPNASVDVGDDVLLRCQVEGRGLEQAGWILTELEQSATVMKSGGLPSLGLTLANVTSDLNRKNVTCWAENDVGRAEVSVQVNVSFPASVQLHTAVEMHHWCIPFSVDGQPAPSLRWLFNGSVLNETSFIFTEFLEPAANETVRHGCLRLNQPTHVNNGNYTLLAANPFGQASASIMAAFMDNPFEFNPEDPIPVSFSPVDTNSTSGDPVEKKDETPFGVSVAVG
# experimental_protocol: Competitive ELISA, TrkA-Fc binding to immobilized NGF (selectivity control)
# condition_parameters: binding to immobilized NGF, no cpd = 100%; TrkA-Fc 50 nM; as described for FIG. 1A

molecule: CC(C)NC(=O)N(C(=O)Cn1cnc2c1c(=O)n(C)c(=O)n2C)C(C)C [I-B]
readout_unit: %
TrkA-Fc binding AVERAGE: 107
//
molecule: Cn1c(=O)c2c(ncn2CC(=O)NCCCC(F)(F)F)n(C)c1=O [I-A]
readout_unit: %
TrkA-Fc binding AVERAGE: 105
//
molecule: Cn1c(=O)c2c(ncn2CC(=O)N(C(=O)NC2CCCCC2)C2CCCCC2)n(C)c1=O [I-G]
readout_unit: %
TrkA-Fc binding AVERAGE: 99
//
molecule: COC(=O)Cn1cnc2c1c(=O)n(C)c(=O)n2C [II-H]
readout_unit: %
TrkA-Fc binding AVERAGE: 94
//
molecule: Cn1c(=O)c2c(ncn2CC(=O)OCCCNC(=O)OCc2ccccc2)n(C)c1=O [II-E]
readout_unit: %
TrkA-Fc binding AVERAGE: 94
//
molecule: Cn1c(=O)c2c(ncn2CC(=O)NCCC(F)(F)F)n(C)c1=O [I-F]
readout_unit: %
TrkA-Fc binding AVERAGE: 91
//
molecule: Cn1c(=O)c2c(ncn2CC(=O)OCCCN)n(C)c1=O [II-D]
readout_unit: %
TrkA-Fc binding AVERAGE: 116

====

# tested_system: p75-Fc (Homo sapiens, UniProt P08138)
# Construct: purchased R&D
# Sequence (P08138 29-250 limits assumed): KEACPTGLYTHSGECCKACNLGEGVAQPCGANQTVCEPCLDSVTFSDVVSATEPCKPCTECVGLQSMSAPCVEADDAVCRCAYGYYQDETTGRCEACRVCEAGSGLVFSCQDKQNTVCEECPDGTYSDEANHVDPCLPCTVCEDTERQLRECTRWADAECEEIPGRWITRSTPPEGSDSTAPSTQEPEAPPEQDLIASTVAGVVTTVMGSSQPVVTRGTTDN
# experimental_protocol: Competitive ELISA, p75-Fc binding to immobilized NGF
# condition_parameters: 0.75 h; binding to immobilized NGF, no cpd = 100%; p75-Fc 50 nM; as described for FIG. 1A (compounds 30 μM); below 100% indicates inhibition
Quick rule for you: remaining activity at 30 µM under 60% gets Fulfilled, anything else gets Not fulfilled.

smiles_data: Cn1c(=O)c2c(ncn2CC(=O)N(C(=O)NC2CCCCC2)C2CCCCC2)n(C)c1=O
class_name: Not fulfilled
--
smiles_data: CC(C)NC(=O)N(C(=O)Cc1c[nH]c2ccccc12)C(C)C
class_name: Fulfilled
--
smiles_data: Cn1c(=O)c2c(ncn2CC(=O)NCCC(F)(F)F)n(C)c1=O
class_name: Not fulfilled
--
smiles_data: Cn1c(=O)c2c(ncn2CC(=O)NCCCC(F)(F)F)n(C)c1=O
class_name: Not fulfilled
--
smiles_data: Cn1c(=O)c2c(ncn2CC(=O)OCCCNC(=O)OCc2ccccc2)n(C)c1=O
class_name: Fulfilled
--
smiles_data: CCCn1c(=O)c2c(ncn2CC(=O)OC)n(CCC)c1=O
class_name: Not fulfilled
--
smiles_data: Cc1ccc(NC(=O)N(C(=O)CCc2c[nH]c3ccccc23)c2ccc(C)cc2)cc1
class_name: Fulfilled
--
smiles_data: COC(=O)Cn1cnc2c1c(=O)n(C)c(=O)n2C
class_name: Not fulfilled
--
smiles_data: CC(C)NC(=O)N(C(=O)Cn1cnc2c1c(=O)n(C)c(=O)n2C)C(C)C
class_name: Fulfilled
--
smiles_data: Cn1c(=O)c2c(ncn2CC(=O)OCCCN)n(C)c1=O
class_name: Not fulfilled

====

Documented NGF30 binding AVERAGE across a set of compounds
# Test system: anti-NGF mAb NGF30
# experimental_protocol: Competitive ELISA, anti-NGF mAb NGF30 binding to immobilized NGF (selectivity control)
# condition_parameters: binding to immobilized NGF, no cpd = 100%; mAb NGF30 50 nM; as described for FIG. 1A

smiles_data: Cn1c(=O)c2c(ncn2CC(=O)OCCCNC(=O)OCc2ccccc2)n(C)c1=O
tested_system: anti-NGF mAb NGF30
NGF30 binding AVERAGE: 89%

smiles_data: Cn1c(=O)c2c(ncn2CC(=O)NCCCC(F)(F)F)n(C)c1=O
tested_system: anti-NGF mAb NGF30
NGF30 binding AVERAGE: 86%

smiles_data: Cn1c(=O)c2c(ncn2CC(=O)OCCCN)n(C)c1=O
tested_system: anti-NGF mAb NGF30
NGF30 binding AVERAGE: 91%

smiles_data: CC(C)NC(=O)N(C(=O)Cn1cnc2c1c(=O)n(C)c(=O)n2C)C(C)C
tested_system: anti-NGF mAb NGF30
NGF30 binding AVERAGE: 88%
